target or test system: UniProt:P33032
Sequence (P33032 whole entry, the tested form may be a part): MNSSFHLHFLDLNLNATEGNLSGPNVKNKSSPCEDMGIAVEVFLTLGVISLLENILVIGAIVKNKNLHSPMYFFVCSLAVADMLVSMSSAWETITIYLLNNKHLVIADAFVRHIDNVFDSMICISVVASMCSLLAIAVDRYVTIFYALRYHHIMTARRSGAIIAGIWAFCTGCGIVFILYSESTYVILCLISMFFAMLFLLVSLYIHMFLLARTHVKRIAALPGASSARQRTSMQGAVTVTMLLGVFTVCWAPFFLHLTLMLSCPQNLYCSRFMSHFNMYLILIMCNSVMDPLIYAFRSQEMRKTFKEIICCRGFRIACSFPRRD
protocol details: Agonist activity at EYFP-fused human MC5R expressed in HEK293 cells at 3000 nM after 16 to 20 hrs by CRE-driven reporter assay relative to alpha-MSH
Type: functional, cell-based
observable: Emax (%)

Please review the following examples before continuing.
>  <compound structure>
CC[C@@H](C)[C@H]1NC(=O)[C@H](Cc2cnc[nH]2)NC(=O)[C@@H](NC(=O)[C@@H](N)CCCCN)Cn2cc(nn2)C[C@@H](C(=O)N[C@@H](CCSC)C(=O)O)NC(=O)[C@H](Cc2c[nH]c3ccccc23)NC(=O)[C@H](CCCNC(=N)N)NC1=O

>  <unit tag>
%

>  <Emax>
0

$$$$
>  <compound structure>
CSCC[C@H](NC(=O)[C@@H]1Cc2cn(nn2)C[C@H](NC(=O)[C@@H](N)CCCCN)C(=O)N[C@@H](Cc2cnc[nH]2)C(=O)N[C@H](Cc2ccccc2)C(=O)N[C@@H](CCCNC(=N)N)C(=O)N[C@@H](C)C(=O)N1)C(=O)O

>  <unit tag>
%

>  <Emax>
18

$$$$
>  <compound structure>
CSCC[C@H](NC(=O)[C@@H]1Cc2cn(nn2)C[C@H](NC(=O)[C@@H](N)CCCCN)C(=O)N[C@@H](Cc2cnc[nH]2)C(=O)N[C@H](Cc2ccccc2)C(=O)N[C@@H](C)C(=O)N[C@@H](Cc2c[nH]c3ccccc23)C(=O)N1)C(=O)O

>  <unit tag>
%

>  <Emax>
5

$$$$
>  <compound structure>
CSCC[C@H](NC(=O)[C@@H]1Cc2cn(nn2)C[C@H](NC(=O)[C@@H](N)CCCCN)C(=O)N[C@@H](Cc2cnc[nH]2)C(=O)N[C@H](Cc2ccccc2)C(=O)N[C@@H](CCCNC(=N)N)C(=O)N[C@@H](Cc2csc3ccccc23)C(=O)N1)C(=O)O

>  <unit tag>
%

>  <Emax>
59

$$$$
>  <compound structure>
CSCC[C@H](NC(=O)[C@@H]1Cc2cn(nn2)C[C@H](NC(=O)[C@@H](N)CCCCN)C(=O)N[C@@H](Cc2cnc[nH]2)C(=O)N[C@H](Cc2ccccc2)C(=O)N[C@@H](CCCN)C(=O)N[C@@H](Cc2c[nH]c3ccccc23)C(=O)N1)C(=O)O

>  <unit tag>
%

>  <Emax>
9

$$$$

a = CSCC[C@H](NC(=O)[C@@H]1Cc2cn(nn2)C[C@H](NC(=O)[C@@H](N)CCCCN)C(=O)N[C@@H](Cc2cnc[nH]2)C(=O)N[C@@H](Cc2ccccc2)C(=O)N[C@@H](CCCNC(=N)N)C(=O)N[C@@H](Cc2c[nH]c3ccccc23)C(=O)N1)C(=O)O
b = CSCC[C@H](NC(=O)[C@@H]1Cc2cn(nn2)C[C@H](NC(=O)[C@@H](N)CCCCN)C(=O)N[C@@H](Cc2cnc[nH]2)C(=O)N[C@H](C)C(=O)N[C@@H](CCCNC(=N)N)C(=O)N[C@@H](Cc2c[nH]c3ccccc23)C(=O)N1)C(=O)O
c = CSCC[C@H](NC(=O)[C@@H]1Cc2cn(nn2)C[C@H](NC(=O)[C@@H](N)CCCCN)C(=O)N[C@@H](Cc2c[nH]c3ccccc23)C(=O)N[C@H](Cc2ccccc2)C(=O)N[C@@H](CCCNC(=N)N)C(=O)N[C@@H](Cc2cnc[nH]2)C(=O)N1)C(=O)O
d = CSCC[C@H](NC(=O)[C@@H]1Cc2cn(nn2)C[C@H](NC(=O)[C@@H](N)CCCCN)C(=O)N[C@@H](Cc2cnc[nH]2)C(=O)N[C@H](Cc2ccccc2)C(=O)N[C@@H](CCCCN)C(=O)N[C@@H](Cc2c[nH]c3ccccc23)C(=O)N1)C(=O)O
e = CSCC[C@H](NC(=O)[C@@H]1Cc2cn(nn2)CCC[C@H](N)C(=O)N[C@@H](Cc2cnc[nH]2)C(=O)N[C@H](Cc2ccccc2)C(=O)N[C@@H](CCCNC(=N)N)C(=O)N[C@@H](Cc2c[nH]c3ccccc23)C(=O)N1)C(=O)O
Q) Order the records by Emax, with each subsequent value no larger than the one before. Form field (ranking): labels in requested order.
A) d, b, e, a, c
